# TARGET_DESC: D(2) dopamine receptor (Homo sapiens)
# PROTOCOL: Binding affinity of compound measured using [3H]spiperone for the cloned human dopamine receptor D2 short (high/low affinity is given as 35/3700)
OUTCOME_MEASURE: pKi
The meaning of pKi here: minus log10 of the concentration in molar units.

Identify measured pKi obtained with D(2) dopamine receptor (Homo sapiens) for `CCCN(CCC)[C@H]1CCc2nn3ccccc3c2C1` . 7.46

* * *

# TARGET_DESC: D(2) dopamine receptor (Rattus norvegicus, UniProt P61169)
# Sequence (P61169 whole entry): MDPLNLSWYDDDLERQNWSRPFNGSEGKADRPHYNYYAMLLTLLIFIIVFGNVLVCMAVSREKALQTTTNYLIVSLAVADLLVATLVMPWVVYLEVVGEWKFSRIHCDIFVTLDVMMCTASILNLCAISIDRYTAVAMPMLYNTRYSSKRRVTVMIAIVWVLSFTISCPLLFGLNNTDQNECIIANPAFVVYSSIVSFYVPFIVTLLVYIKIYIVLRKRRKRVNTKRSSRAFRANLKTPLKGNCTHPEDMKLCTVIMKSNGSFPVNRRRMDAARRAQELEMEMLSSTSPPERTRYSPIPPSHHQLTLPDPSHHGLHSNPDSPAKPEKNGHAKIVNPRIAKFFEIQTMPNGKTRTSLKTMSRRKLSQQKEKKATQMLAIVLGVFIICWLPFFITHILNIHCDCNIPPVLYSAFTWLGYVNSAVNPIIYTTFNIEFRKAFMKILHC
# PROTOCOL: Effective concentration required for agonistic activity against rat Dopamine receptor D2L
# Assay type: functional
OUTCOME_MEASURE: EC50 (nM)
Response body: numeric value in nM, unit text excluded.

Input `CCCN(CCC)[C@H]1CCc2nn3ccccc3c2C1` , output reported EC50. 16

* * *

Provide the recorded EC50 for the entries that follow.
# TARGET_DESC: D(4) dopamine receptor (Homo sapiens, UniProt P21917)
# Sequence (P21917 whole entry): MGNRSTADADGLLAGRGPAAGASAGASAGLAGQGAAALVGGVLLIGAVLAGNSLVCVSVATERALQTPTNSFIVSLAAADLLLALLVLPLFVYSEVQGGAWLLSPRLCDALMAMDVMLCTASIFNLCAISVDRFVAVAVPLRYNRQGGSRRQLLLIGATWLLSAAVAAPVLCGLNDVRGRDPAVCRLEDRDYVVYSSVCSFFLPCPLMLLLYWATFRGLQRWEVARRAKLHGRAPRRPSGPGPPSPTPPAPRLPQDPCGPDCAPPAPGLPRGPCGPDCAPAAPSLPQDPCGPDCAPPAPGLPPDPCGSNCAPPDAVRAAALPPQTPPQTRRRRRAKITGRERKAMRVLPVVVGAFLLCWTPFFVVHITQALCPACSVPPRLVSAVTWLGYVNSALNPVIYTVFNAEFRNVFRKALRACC
# PROTOCOL: Effective concentration required for agonistic activity against human D4.2 receptor

Input `CCCN(CCC)[C@H]1CCc2nn3ccccc3c2C1` , output reported EC50. 430 nM

Input `CCCN1CCc2nn3ccccc3c2C1` , output reported EC50. > 1000 nM

Input `CCCN1CCC[C@@H](c2cccc(O)c2)C1` , output reported EC50. 60 nM

* * *

# TARGET_DESC: D(2) dopamine receptor (Homo sapiens, UniProt P14416)
# Sequence (P14416 whole entry): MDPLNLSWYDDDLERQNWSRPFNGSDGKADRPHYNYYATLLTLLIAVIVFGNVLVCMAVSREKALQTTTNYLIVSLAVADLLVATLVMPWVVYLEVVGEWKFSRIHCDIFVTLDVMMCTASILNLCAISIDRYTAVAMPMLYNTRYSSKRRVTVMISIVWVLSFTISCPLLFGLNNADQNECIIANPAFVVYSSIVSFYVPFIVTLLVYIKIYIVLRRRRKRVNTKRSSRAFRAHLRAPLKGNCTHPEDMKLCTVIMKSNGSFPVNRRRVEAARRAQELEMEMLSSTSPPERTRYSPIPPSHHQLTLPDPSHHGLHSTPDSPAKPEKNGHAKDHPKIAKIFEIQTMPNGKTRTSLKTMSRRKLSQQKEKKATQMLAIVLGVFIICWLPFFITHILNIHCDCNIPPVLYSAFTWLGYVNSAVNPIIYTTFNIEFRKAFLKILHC
# PROTOCOL: Binding affinity of compound measured using [3H]spiperone for the cloned human Dopamine receptor D2L (high/low affinity is given as 85/6400)
OUTCOME_MEASURE: pKi
The meaning of pKi here: minus log10 of the concentration in molar units.

Input `CCCN(CCC)[C@H]1CCc2nn3ccccc3c2C1` , output reported pKi. 7.07

* * *

# TARGET_DESC: D(2) dopamine receptor (Rattus norvegicus)
# PROTOCOL: Effective concentration required for agonistic activity against rat D2 long receptor
# Assay type: functional
OUTCOME_MEASURE: EC50

Input `CCCN1CCc2nn3ccccc3c2C1` , output reported EC50. > 1000 nM

* * *

# TARGET_DESC: UniProt:P14416
# PROTOCOL: Binding affinity of compound measured using [3H]spiperone for the cloned human dopamine receptor D2 long (high/low affinity is given as 230/53000)
OUTCOME_MEASURE: pKi
The meaning of pKi here: minus log10 of the concentration in molar units.

Input `CCCN1CCc2nn3ccccc3c2C1` , output reported pKi. 6.64

* * *

# TARGET_DESC: D(3) dopamine receptor (Homo sapiens, UniProt P35462)
# Sequence (P35462 whole entry): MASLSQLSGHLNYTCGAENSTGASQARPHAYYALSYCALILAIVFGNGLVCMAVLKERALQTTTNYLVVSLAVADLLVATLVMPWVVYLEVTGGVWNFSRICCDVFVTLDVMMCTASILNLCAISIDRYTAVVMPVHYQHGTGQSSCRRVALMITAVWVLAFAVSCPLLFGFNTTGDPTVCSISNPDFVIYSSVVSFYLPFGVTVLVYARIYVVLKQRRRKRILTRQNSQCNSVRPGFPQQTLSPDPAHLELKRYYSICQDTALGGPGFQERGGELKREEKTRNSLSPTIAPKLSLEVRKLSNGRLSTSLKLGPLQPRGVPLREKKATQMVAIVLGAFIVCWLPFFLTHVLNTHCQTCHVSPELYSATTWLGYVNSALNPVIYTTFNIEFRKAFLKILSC
# PROTOCOL: Effective concentration required for agonistic activity against human D3 receptor
# Assay type: functional
OUTCOME_MEASURE: EC50

Identify measured EC50 obtained with D(3) dopamine receptor (Homo sapiens, UniProt P35462) for `CCCN1CCc2nn3ccccc3c2C1` . > 1 µM

* * *

OUTCOME_MEASURE: Ki
Dear colleague, please send the value followed by its unit.

Identify measured Ki obtained with D(3) dopamine receptor (Homo sapiens) for `CCCN1CCc2nn3ccccc3c2C1` . 0.016 µM

* * *

OUTCOME_MEASURE: pKi
The meaning of pKi here: minus log10 of the concentration in molar units.

Identify measured pKi obtained with UniProtKB P35462 for `CCCN(CCC)[C@H]1CCc2nn3ccccc3c2C1` . 9.27

Reference source for all entries: ChEMBL document CHEMBL1134894
